Test system: PANC-1
Assay: in vitro cytotoxicity assay
Type: cell-based
Settings: Homo sapiens, PANC-1, 48 h
measurement_name: IC50

Record request: IC50 value, item COC1=C(OC)[C@H](O)[C@H](C/C=C(\C)CC/C=C(\C)CCC=C(C)C)[C@@H](C)C1=O > 25 µM

---

Test system: AsPC-1
Assay: in vitro cytotoxicity assay
Format: cell-based
Details: Homo sapiens, ASPC1, 48 h
measurement_name: IC50

Record request: IC50 value, item COC1=C(OC)[C@H](O)[C@H](C/C=C(\C)CC/C=C(\C)CCC=C(C)C)[C@@H](C)C1=O [Compound 1, Antroquinonol A] > 25 µM

---

Test: mouse pharmacokinetic study
Assay type: in vivo
Settings: male, Balb/C, whole blood, po, 50 mg/kg
measurement_name: Cmax (nM)
Output spec: scalar in nM, unitless text.

Record request: Cmax value, item COC1=C(OC)[C@H](O)[C@H](C/C=C(\C)CC/C=C(\C)CCC=C(C)C)[C@@H](C)C1=O [Compound 1, Antroquinonol A] 79

---

Experiment: mouse pharmacokinetic study
Type: in vivo
Settings: male, Balb/C, whole blood, po, 50 mg/kg
measurement_name: Tmax (h)
Output spec: scalar in h, unitless text.

Record request: Tmax value, item COC1=C(OC)[C@H](O)[C@H](C/C=C(\C)CC/C=C(\C)CCC=C(C)C)[C@@H](C)C1=O 2

---

Test: mouse pharmacokinetic study
Assay type: in vivo
Settings: male, Balb/C, whole blood, po, 50 mg/kg
measurement_name: AUC(0-t) (µM·h)
Output spec: scalar in µM·h, unitless text.

Record request: AUC(0-t) value, item COC1=C(OC)[C@H](O)[C@H](C/C=C(\C)CC/C=C(\C)CCC=C(C)C)[C@@H](C)C1=O 0.266

---

Assay: mouse pharmacokinetic study
Format: in vivo
Conditions: male, Balb/C, whole blood, ip, 50 mg/kg
measurement_name: AUC(0-t) (µM·h)
Output spec: scalar in µM·h, unitless text.

Record request: AUC(0-t) value, item COC1=C(OC)[C@H](O)[C@H](C/C=C(\C)CC/C=C(\C)CCC=C(C)C)[C@@H](C)C1=O 2.29
